# ASSAY_SYSTEM: Anti-CD28 Fab (SEQ ID NOs: 696, 697)
# Sequence (VH, as listed by the source, chain 1 of 2): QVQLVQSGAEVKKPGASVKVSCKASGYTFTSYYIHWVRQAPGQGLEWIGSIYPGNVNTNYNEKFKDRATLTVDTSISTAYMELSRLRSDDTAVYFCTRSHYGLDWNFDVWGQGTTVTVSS
# Sequence (VL, as listed by the source, chain 2 of 2): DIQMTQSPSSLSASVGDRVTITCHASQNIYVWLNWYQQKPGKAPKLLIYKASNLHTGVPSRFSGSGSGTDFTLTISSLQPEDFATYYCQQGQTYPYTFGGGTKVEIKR
# ASSAY_PROCEDURE: phage binding ELISA; biotinylated anti-CD28 Fab on neutravidin plate, clonal phage, anti-M13 HRP detection
PROPERTY_NAME: Anti-CD28 Fab signal (phage binding ELISA)
Answers are plain numbers.

Solved cases (5 shown):
{"columns": ["BINDER", "VAL"],
 "data": [
  ["LCSAGAMYPWPVCL (Tested as clonal phage supernatant) [Phage-1640 (peptide-92 library clone, SEQ ID NO: 1936)]", 1.19],
  ["SCSAGATWAWPQCF (Tested as clonal phage supernatant) [Phage-1641 (peptide-92 library clone, SEQ ID NO: 1937)]", 1.19],
  ["SCAAGAHWSWPVCF (Tested as clonal phage supernatant) [Phage-1639 (peptide-92 library clone, SEQ ID NO: 1935)]", 1.2],
  ["SCSAVFSYRWPKCL (Tested as clonal phage supernatant) [Phage-1642 (peptide-92 library clone, SEQ ID NO: 1938)]", 1.18],
  ["TCAAGANWPWPECL (Tested as clonal phage supernatant) [Phage-1636 (peptide-92 library clone, SEQ ID NO: 1932)]", 1.21]
]}

For SCADGFNYVWPLCF (Tested as clonal phage supernatant) [Phage-1645 (peptide-92 library clone, SEQ ID NO: 1941)] the binder record lists Anti-CD28 Fab signal (phage binding ELISA) as 1.14
